- target: urease (Canavalia ensiformis, UniProt P07374)
- Sequence (P07374 whole entry, looked up): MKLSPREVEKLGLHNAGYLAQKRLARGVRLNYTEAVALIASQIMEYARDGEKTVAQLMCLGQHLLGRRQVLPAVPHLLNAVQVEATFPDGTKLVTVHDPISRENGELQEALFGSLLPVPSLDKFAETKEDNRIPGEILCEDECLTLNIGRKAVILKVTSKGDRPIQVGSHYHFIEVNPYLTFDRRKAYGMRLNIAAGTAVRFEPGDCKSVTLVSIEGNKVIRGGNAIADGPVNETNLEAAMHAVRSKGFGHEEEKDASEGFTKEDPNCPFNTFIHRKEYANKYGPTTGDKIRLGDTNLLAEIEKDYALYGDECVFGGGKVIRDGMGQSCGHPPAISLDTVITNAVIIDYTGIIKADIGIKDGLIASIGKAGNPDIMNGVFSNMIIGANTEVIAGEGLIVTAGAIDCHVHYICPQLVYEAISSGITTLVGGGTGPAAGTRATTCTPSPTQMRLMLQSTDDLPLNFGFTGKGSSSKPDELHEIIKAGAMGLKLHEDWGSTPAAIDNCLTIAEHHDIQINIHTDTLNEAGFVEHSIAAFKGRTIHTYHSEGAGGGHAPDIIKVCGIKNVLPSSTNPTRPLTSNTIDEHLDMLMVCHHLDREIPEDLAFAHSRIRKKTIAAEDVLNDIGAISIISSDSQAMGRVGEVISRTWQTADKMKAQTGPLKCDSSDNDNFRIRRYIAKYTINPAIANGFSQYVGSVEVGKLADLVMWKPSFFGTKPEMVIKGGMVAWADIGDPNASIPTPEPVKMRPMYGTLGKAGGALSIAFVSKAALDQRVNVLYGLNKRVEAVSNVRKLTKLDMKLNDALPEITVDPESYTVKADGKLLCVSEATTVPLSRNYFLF
- experiment: Urease inhibition assay
- Assay type: biochemical
- assay context: IC50 (µM) ± SEM, in-vitro urease inhibition
outcome measure: IC50 (µM)
Form entry: value (µM) — number only.

Sample records with IC50:
Clc1ccc(C=NN=C(Cc2ccccc2)c2ccccc2)c(Cl)c1 [Compound 3]
22.2
Clc1ccc(C=NN=C(Cc2ccccc2)c2ccccc2)cc1 [Compound 6]
28.1
O=[N+]([O-])c1ccc(O)c(C=NN=C(Cc2ccccc2)c2ccccc2)c1 [Compound 5]
34.3

Next, consider the following compound.
Exercise: GET /values?readout=IC50&system=urease (Canavalia ensiformis, UniProt P07374)&item= O=[N+]([O-])c1ccc(C=NN=C(Cc2ccccc2)c2ccccc2)cc1 [Compound 4]
Key: 26.1
